# Test system: DU145
# TEST METHOD NOTES: DU145 scattering inhibition (HGF dependent scattering)
# Assay type: cell-based
# APPLIED CONDITIONS: Homo sapiens, DU-145, Table 31, read-out: DU145 scattering inhib IC50
# reported IC50; entries follow

- MOLECULE: "C#Cc1cc(F)ccc1CC(=O)NC(=S)Nc1ccc(Oc2ccnc3cc(-c4cn(CCN5CCCC5)cn4)sc23)c(F)c1"
  IC50: "< 1000 nM"
- MOLECULE: "O=C(Cc1ccc(F)cc1)NC(=S)Nc1ccc(Oc2ccnc3cc(-c4cc[n+]([O-])cc4)sc23)c(F)c1"
  IC50: "< 1000 nM"
- MOLECULE: "C#Cc1ccc(CC(=O)NC(=S)Nc2ccc(Oc3ccnc4cc(-c5cn(CC)cn5)sc34)c(F)c2)cc1"
  IC50: "1000 to 5000 nM"
- MOLECULE: "CNC(=O)N1CCN(Cc2ccc(-c3cc4nccc(Oc5ccc(NC(=S)NC(=O)Cc6ccccc6)cc5F)c4s3)cc2)CC1"
  IC50: "< 1000 nM"
- MOLECULE: "CCn1cnc(-c2cc3nccc(Oc4ccc(NC(=S)NC(=O)Cc5ccccc5O)cc4F)c3s2)c1"
  IC50: "1000 to 5000 nM"
- MOLECULE: "CC(C(=O)NC(=S)Nc1ccc(Oc2ccnc3cc(-c4nccn4C)sc23)c(F)c1)c1ccccc1 (stereo not shown)"
  IC50: "< 1000 nM"
- MOLECULE: "CO/N=C(\\C)c1cc2nccc(Oc3ccc(NC(=S)NC(=O)Cc4ccccc4)cc3F)c2s1"
  IC50: "1000 to 5000 nM"
- MOLECULE: "COCCNCc1ccc(-c2cc3nccc(Oc4ccc(NC(=S)NC(=O)Cc5ccc(F)cc5)cc4F)c3s2)cc1"
  IC50: "< 1000 nM"
- MOLECULE: "Cn1cnc(-c2cc3nccc(Oc4ccc(NC(=S)NC(=O)Cc5cccc(F)c5)cc4F)c3s2)c1"
  IC50: "< 1000 nM"
- MOLECULE: "C#Cc1cc(F)ccc1CC(=O)NC(=S)Nc1ccc(Oc2ccnc3cc(C4=CCN(C)CC4)sc23)c(F)c1"
  IC50: "< 1000 nM"
- MOLECULE: "CN1CC=C(c2cc3nccc(Oc4ccc(NC(=S)NC(=O)Cc5ccc(F)cc5)cc4F)c3s2)CC1"
  IC50: "< 1000 nM"
- MOLECULE: "CN1CCN(Cc2ccc(-c3cc4nccc(Oc5ccc(NC(=S)NC(=O)Cc6ccc(F)cc6)cc5F)c4s3)cc2)CC1"
  IC50: "< 1000 nM"
- MOLECULE: "CCn1cnc(-c2cc3nccc(Oc4ccc(NC(=S)NC(=O)Cc5ccc(F)cc5F)cc4F)c3s2)c1"
  IC50: "< 1000 nM"

---

# Tested on: A549
# TEST METHOD NOTES: A549 wound healing inhibition (HGF dependent migration)
# Type: cell-based
# APPLIED CONDITIONS: Homo sapiens, Table 31, read-out: A549 wound healing inbib IC50
pIC50: −log10 of the molar value.

- COMPOUND: "O=C(Cc1ccccc1)NC(=S)Nc1ccc(Oc2ccnc3cc(-c4cn(CCN5CCCC5)cn4)sc23)c(F)c1"
  TESTED ON: "A549"
  pIC50: "5.00 to 5.30"
- COMPOUND: "C#Cc1ccc(CC(=O)NC(=S)Nc2ccc(Oc3ccnc4cc(-c5nccn5C)sc34)c(F)c2)cc1F"
  TESTED ON: "A549"
  pIC50: "> 6.00"
- COMPOUND: "CCCNCc1ccc(-c2cc3nccc(Oc4ccc(NC(=S)NC(=O)Cc5ccc(F)cc5)cc4F)c3s2)cc1"
  TESTED ON: "A549"
  pIC50: "> 6.00"
- COMPOUND: "COc1ccccc1CC(=O)NC(=S)Nc1ccc(Oc2ccnc3cc(-c4cn(CC(N)=O)cn4)sc23)c(F)c1"
  TESTED ON: "A549"
  pIC50: "< 5.00"
- COMPOUND: "CCn1cnc(-c2cc3nccc(Oc4ccc(NC(=S)NC(=O)Cc5ccc(F)cc5)cc4F)c3s2)c1"
  TESTED ON: "A549"
  pIC50: "> 6.00"
- COMPOUND: "COCCNCc1ccc(-c2cc3nccc(Oc4ccc(NC(=O)NC(=O)Cc5ccc(F)cc5)cc4F)c3s2)cc1"
  TESTED ON: "A549"
  pIC50: "> 6.00"
- COMPOUND: "Cc1ccccc1CC(=O)NC(=S)Nc1ccc(Oc2ccnc3cc(-c4nccn4C)sc23)c(F)c1"
  TESTED ON: "A549"
  pIC50: "> 6.00"
- COMPOUND: "C#Cc1ccccc1CC(=O)NC(=S)Nc1ccc(Oc2ccnc3cc(-c4cn(CCN5CCCC5)cn4)sc23)c(F)c1"
  TESTED ON: "A549"
  pIC50: "> 6.00"
- COMPOUND: "Cn1cnc(-c2cc3nccc(Oc4ccc(NC(=S)NC(=O)Cc5ccc(F)cc5F)cc4F)c3s2)c1 [drawing 434]"
  TESTED ON: "A549"
  pIC50: "> 6.00"
- COMPOUND: "O=C(Cc1ccccc1)NC(=S)Nc1ccc(Oc2ccnc3cc(-c4ccc(CN5CCNCC5)cc4)sc23)c(F)c1"
  TESTED ON: "A549"
  pIC50: "5.30 to 6.00"
- COMPOUND: "C#Cc1ccccc1CC(=O)NC(=S)Nc1ccc(Oc2ccnc3cc(-c4cn(C)cn4)sc23)c(F)c1 [drawing 451]"
  TESTED ON: "A549"
  pIC50: "> 6.00"
- COMPOUND: "C=C(F)c1ccccc1CC(=O)NC(=S)Nc1ccc(Oc2ccnc3cc(-c4cn(C)cn4)sc23)c(F)c1"
  TESTED ON: "A549"
  pIC50: "> 6.00"
- COMPOUND: "CN(c1ccc(NC(=S)NC(=O)Cc2ccccc2)cc1F)c1ccnc2cc(-c3cn(C)cn3)sc12"
  TESTED ON: "A549"
  pIC50: "> 6.00"
- COMPOUND: "C#Cc1ccccc1CC(=O)NC(=S)Nc1ccc(Oc2ccnc3cc(-c4ccc(CNCCOC)cn4)sc23)c(F)c1"
  TESTED ON: "A549"
  pIC50: "> 6.00"
- COMPOUND: "COCCN(CCOC)Cc1cccc(-c2cc3nccc(Oc4ccc(NC(=S)NC(=O)Cc5ccc(F)cc5)cc4F)c3s2)c1"
  TESTED ON: "A549"
  pIC50: "> 6.00"
- COMPOUND: "CCn1ccnc1-c1cc2nccc(Oc3ccc(NC(=S)NC(=O)Cc4ccc(F)cc4)cc3F)c2s1"
  TESTED ON: "A549"
  pIC50: "> 6.00"
- COMPOUND: "Cc1ccccc1CC(=O)NC(=S)Nc1ccc(Oc2ccnc3cc(-c4cn(C)cn4)sc23)c(F)c1"
  TESTED ON: "A549"
  pIC50: "> 6.00"
- COMPOUND: "CN1CCN(Cc2ccc(-c3cc4nccc(Oc5ccc(NC(=S)NC(=O)Cc6ccc(F)cc6)cc5F)c4s3)cc2)CC1"
  TESTED ON: "A549"
  pIC50: "> 6.00"

The reported measurements were obtained from patent US20100249145A1.
